System: SNB-19 CNS
Test: NCI tumour cell line growth inhibition, 48 h; in the data active means GI50 below about 0.43 µM; inactive means the rest
Would you mind answering with one of these outcomes? active, inactive

Compound	Test System	Group Label
Cc1cc(C2CC(O)C(CO)O2)cc2c(=O)[nH]c(N)nc12 (stereo not given)	SNB-19 CNS	inactive
COCCOc1cnc2ccn([C@H](C)c3nnc4c(F)cc(-c5cnn(C)c5)cn34)c(=O)c2c1	SNB-19 CNS	inactive
CC(C)N=c1cc2n(-c3ccc(Cl)cc3)c3ccccc3nc-2cc1Nc1ccc(Cl)cc1	SNB-19 CNS	inactive
O=C(Nc1ccc(Br)cc1)c1ccc(Cl)c(Cl)c1	SNB-19 CNS	inactive
O=C(COc1ccc(/C=C2\CSc3ccccc3C2=O)cc1)Nc1nccs1	SNB-19 CNS	inactive

Req: Which outcome did this test record for the compound `COc1cc(C2=C(c3cn(C)c4ccccc34)COC2=O)cc(OC)c1OC` ?
Resp: active

Req: Give the logged outcome of this assay for the following compound: `CN(CCCNC(=O)Cc1ccc2ccc3cccc4ccc1c2c34)CCCNc1cc(-c2ccc3ccccc3c2)nc2ccccc12`
Resp: inactive

Req: In this assay, the call recorded for `C[C@@]12CCCc3coc(c31)C(=O)c1cc3c(cc12)C(=O)C=CC3=O` was what?
Resp: inactive

Req: # outcome recorded in this test, key = `CCOC(=O)CNC(=O)c1ccccc1Nc1ccnc(C(F)(F)F)c1`
Resp: inactive

Req: How did this test come out for `CC(C)S(=O)(=O)c1ccccc1Nc1nc(Nc2cccc(NC(=O)CN)c2)ncc1Cl` ?
Resp: active

Sourced from PubChem BioAssay (NCI)
